This section presents molecules with their documented ability of recombinant RTK ligand to confer resistance values.
- System: six V600E BRAF melanoma cell lines
- assay name: Screening of recombinant RTK ligands for ability to confer resistance to BRAFi (PLX4720) or MEKi (PD184352) (Table 4)
- Type: cell-based, human
- Parameters: scale not given here
- experimental setup: SK-MEL-28, PLX4720 - 2 uM, ligand 6.25 ng/ml
// no unit, no text: just the number

1) GDNF (protein, UniProt P39905 78-211, looked up) Glial cell line-derived …: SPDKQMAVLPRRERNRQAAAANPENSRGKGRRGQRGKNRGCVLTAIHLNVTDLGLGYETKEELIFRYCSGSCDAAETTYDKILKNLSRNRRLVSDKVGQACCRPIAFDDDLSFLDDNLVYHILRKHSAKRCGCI | 1.05

The reported value for VEGF-C (protein, UniProt P49767 112-227, looked up) Vascular endothelial growth …: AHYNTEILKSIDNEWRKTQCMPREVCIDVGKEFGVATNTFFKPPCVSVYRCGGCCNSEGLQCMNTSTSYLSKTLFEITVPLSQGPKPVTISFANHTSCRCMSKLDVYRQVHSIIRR in terms of ability of recombinant RTK ligand to confer resistance is 0.94

The reported value for Ephrin-A4 (protein, UniProt P52798 26-170, looked up) Ephrin-A4: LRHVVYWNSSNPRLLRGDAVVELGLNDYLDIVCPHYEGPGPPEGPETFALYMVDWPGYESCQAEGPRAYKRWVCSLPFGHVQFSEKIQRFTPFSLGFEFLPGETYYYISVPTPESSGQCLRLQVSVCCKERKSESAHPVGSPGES in terms of ability of recombinant RTK ligand to confer resistance is 0.84

The reported value for BDNF (protein, UniProt P23560 19-247, looked up) Neurotrophic factor BDNF …: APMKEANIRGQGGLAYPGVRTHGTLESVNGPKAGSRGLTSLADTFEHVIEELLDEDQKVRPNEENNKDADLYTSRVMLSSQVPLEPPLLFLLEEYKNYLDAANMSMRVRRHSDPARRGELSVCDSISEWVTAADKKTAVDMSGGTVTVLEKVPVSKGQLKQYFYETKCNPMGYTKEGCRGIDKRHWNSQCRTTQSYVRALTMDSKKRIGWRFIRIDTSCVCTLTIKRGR in terms of ability of recombinant RTK ligand to confer resistance is 0.99

The reported value for flt-3 ligand (FL) (protein, UniProt P49771 27-235, looked up) Fms-related tyrosine kinase 3 …: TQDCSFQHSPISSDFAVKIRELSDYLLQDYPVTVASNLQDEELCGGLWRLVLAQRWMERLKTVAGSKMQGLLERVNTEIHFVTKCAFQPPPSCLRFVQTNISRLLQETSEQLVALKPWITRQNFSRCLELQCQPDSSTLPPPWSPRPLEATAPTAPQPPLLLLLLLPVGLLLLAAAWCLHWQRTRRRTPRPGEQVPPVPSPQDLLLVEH in terms of ability of recombinant RTK ligand to confer resistance is 0.86
